Attribution: paper PMC10397247

Biological target: T1, 4H2238-AA
T1 chain: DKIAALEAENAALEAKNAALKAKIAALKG
Experiment: two-hybrid library CCmax;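 further: natural log of median RNA to DNA barcode read ratio; higher means stronger binding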
Conditions: mean of both orientations
QUANTITY: interaction score

A. DENAALEAEIAALEAKNAALKAEIAALKG [4H1082-AA]
B. DENAALEAENAALEAKIAALKAKIAALKG [4H1198-AA]
C. DEIAALKAKNAALKAKNAALKAEIAALEG [4H1017-AA]
Incoming: # desc sort on interaction score across 3 binders The response must list the labels following the requested ordering.
Outgoing: C, B, A
(C: 1.64, B: -0.785, A: -1.2)
